Measured values drawn from the supplement of paper PMC7877785 for this set.

Assay: self-splicing fitness, log relative to wild type (ln ratio); higher = more splicing; Tetrahymena group I intron in knt gene, E. coli kanamycin selection, DiMSum; sequences stand for … in CUCUCU…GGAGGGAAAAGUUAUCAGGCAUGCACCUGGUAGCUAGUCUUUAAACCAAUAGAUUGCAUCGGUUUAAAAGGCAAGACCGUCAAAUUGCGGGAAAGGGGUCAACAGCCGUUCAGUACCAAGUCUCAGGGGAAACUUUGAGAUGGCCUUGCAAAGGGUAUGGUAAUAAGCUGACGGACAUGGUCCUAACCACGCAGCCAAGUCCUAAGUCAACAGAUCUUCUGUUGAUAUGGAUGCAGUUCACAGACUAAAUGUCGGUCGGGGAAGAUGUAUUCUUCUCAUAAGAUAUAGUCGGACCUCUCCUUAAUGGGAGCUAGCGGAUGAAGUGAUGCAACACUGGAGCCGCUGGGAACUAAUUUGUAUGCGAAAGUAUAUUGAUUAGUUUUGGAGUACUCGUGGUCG;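 also: selection with 25 µg/mL kanamycin versus none on LB agar overnight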
Conditions: 37 °C
PARAMETER: self-splicing fitness (ln)

The following sequences have reported results that may help.
| SEQUENCE_INPUT | self-splicing fitness (ln) |
| --- | --- |
| CGAAAGCAAUAUUACGUUUG | -1.74 |
| AGUUAGCAAUAUUACGACGG | -0.189 |
| GCAAAGCAAUAUUACGAGAC | -2.63 |

Batch lookup, self-splicing fitness (ln) per entry.
1. AAAUAGCAAUAUUACGAUCG
2. AACUAGCAAUAUUACGAUCA
3. GUAAAGCAAUAUUACGGAUU

output:
[-0.18, -0.0939, -0.288]

Batch lookup, self-splicing fitness (ln) per entry.
1. AGAGAGCAAUAUUACGCGUG
2. CUAUAGCAAUAUUACGGAAC

output:
-1.44
-1.63

----------
Assay: self-splicing fitness, log relative to wild type (ln ratio); higher = more splicing; Tetrahymena group I intron in knt gene, E. coli kanamycin selection, DiMSum; sequences stand for … in CUCUCU…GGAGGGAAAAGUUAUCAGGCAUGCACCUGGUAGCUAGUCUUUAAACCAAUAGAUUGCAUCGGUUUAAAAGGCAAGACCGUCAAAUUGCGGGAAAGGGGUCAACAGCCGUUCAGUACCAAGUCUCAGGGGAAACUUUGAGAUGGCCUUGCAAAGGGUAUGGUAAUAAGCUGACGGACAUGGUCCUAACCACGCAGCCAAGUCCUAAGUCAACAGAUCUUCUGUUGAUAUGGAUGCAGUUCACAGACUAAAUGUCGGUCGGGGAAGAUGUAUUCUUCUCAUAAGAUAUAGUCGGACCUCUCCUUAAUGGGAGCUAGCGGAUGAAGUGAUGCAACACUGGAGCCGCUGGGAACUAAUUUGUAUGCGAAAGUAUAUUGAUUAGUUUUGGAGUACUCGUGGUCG
Details: 37 °C
Please go through the items and note down their self-splicing fitness (ln).
Answers are plain numbers.

| SEQUENCE_INPUT | DATA_VALUE |
| --- | --- |
| CUUGAGCAAUAUUACGAUAU | -1.76 |
| GUGCAGCAAUAUUACGGCCG | -1.12 |
| AUCUAGCAAUAUUACGGCGA | -0.448 |

Batch lookup, self-splicing fitness (ln) per entry.
1. UCCUAGCAAUAUUACGGACA
2. UUUCAGCAAUAUUACGGCGA
3. UACCAGCAAUAUUACGGGCA
4. GCCGAGCAAUAUUACGUUCC
5. CUUUAGCAAUAUUACGUAUG

output:
[-2.29, 0.167, 0.469, -0.589, -0.4]
